- Method Description: in vivo
- Study Conditions: New Zealand White, rabbit, in vivo, topical or ocular, Cmax SE, aqueous humor (AH)
Property Label: Cmax (ng/g)

>>> assay_result("CCCCC1=NC2(CCCC2)C(=O)N1Cc1ccc(-c2ccccc2-c2nnn[nH]2)cc1")
121
